Structures can show the parent of a compound that is named as a salt.
Parameter 'readout' = pKi; parameter 'system' = σ1-receptor (Cavia porcellus (Guinea pig), UniProt Q60492).
Sequence (Q60492 whole entry): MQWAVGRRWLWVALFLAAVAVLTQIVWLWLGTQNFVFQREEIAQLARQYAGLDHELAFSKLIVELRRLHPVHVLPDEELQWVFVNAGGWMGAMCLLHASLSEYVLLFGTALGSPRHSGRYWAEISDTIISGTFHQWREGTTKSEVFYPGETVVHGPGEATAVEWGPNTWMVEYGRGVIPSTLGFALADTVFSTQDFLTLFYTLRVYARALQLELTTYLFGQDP
Hey, just a heads up that pKi is the negative log base 10 of the concentration in molar.

molecule	value_type	val
c1ccc(-c2nn3cc(COCCN4CCCCCC4)nc3s2)cc1 [Compound 4, maleate]	pKi	6.77

# input Missing value: pKi, σ1-receptor (Cavia porcellus (Guinea pig), UniProt Q60492), entry CN1CCN(Cc2cn3cc(-c4ccc(F)cc4)sc3n2)CC1 [Compound 13, maleate] . Fill in?
# output 6.68

# input API: value(readout= pKi, system= σ1-receptor (Cavia porcellus (Guinea pig), UniProt Q60492), query= CN1CCN(Cc2cn3nc(-c4ccccc4)sc3n2)CC1 [Compound 11, maleate] )
# output 6.59

----------
Where a name gives a salt, the structure may show the parent alone.
Reported values: Ki for σ1-receptor (Cavia porcellus (Guinea pig)), one per item.

Completed entries (count: 4):
compound	target_system	Ki
c1ccc(-c2cn3cc(CN4CCCCCC4)nc3s2)cc1 [Compound 6, maleate]	σ1-receptor (Cavia porcellus (Guinea pig))	16 nM
CN1CCN(Cc2cn3cc(-c4ccccc4)sc3n2)CC1 [Compound 7, maleate]	σ1-receptor (Cavia porcellus (Guinea pig))	56 nM
c1ccc(-c2cn3cc(COCCN4CCCCCC4)nc3s2)cc1 [Compound 9, maleate]	σ1-receptor (Cavia porcellus (Guinea pig))	40 nM
c1ccc(-c2cn3cc(CN4CCCCCC4)sc3n2)cc1 [Compound 12, maleate]	σ1-receptor (Cavia porcellus (Guinea pig))	100 nM

# next compound below
# input Find the measured Ki: item c1ccc(-c2cn3cc(COCCN4CCCC4)nc3s2)cc1 [Compound 10, maleate] , target or system σ1-receptor (Cavia porcellus (Guinea pig)).
# output 190 nM
